Test system: UGT
Test: Liver microsomal glucuronidation assay (dog)
Format: in vitro ADME
Settings: dog liver microsomes, pH 7.5, dog, with 2% BSA, Clint divided by microsomal unbound fraction, read-out: Clint,u, Liver microsomes
Measured endpoint: microsomal CLint at 2 µmol/L (µL/min/mg)
Write the value in µL/min/mg as a bare number.

Requested field: microsomal CLint at 2 µmol/L. Item: C[C@H]1c2cccc(CC(C)(C)O)c2C[C@H](CO)N1C(=O)Cc1c(Cl)cccc1Cl [DPTQ] 667

###

Test: Hepatocyte intrinsic clearance with and without ABT (human)
Format: in vitro ADME
Conditions: cryopreserved human hepatocytes; human hepatocytes, 0.3 µmol/L compound, 10^6 cells/mL; read-out: Clint without ABT
Measured endpoint: hepatocyte CLint at 0.3 µmol/L (µL/min/1e6 cells)
Entry rule: numbers only, all in µL/min/1e6 cells.

test_smiles=Cc1ccc([C@@H]2O[C@H](CO)[C@@H](O)[C@H](O)[C@H]2O)cc1Cc1ccc(-c2ccc(F)cc2)s1 reported=12.7

# get_value(readout='hepatocyte CLint at 0.3 µmol/L', item= C[C@H]1c2cccc(CC(C)(C)O)c2C[C@H](CO)N1C(=O)Cc1c(Cl)cccc1Cl ) 5.8

Data provenance is paper PMC6609541.
